Molecular target: FGFR1 (UniProt P11362)
Sequence (P11362 whole entry, looked up): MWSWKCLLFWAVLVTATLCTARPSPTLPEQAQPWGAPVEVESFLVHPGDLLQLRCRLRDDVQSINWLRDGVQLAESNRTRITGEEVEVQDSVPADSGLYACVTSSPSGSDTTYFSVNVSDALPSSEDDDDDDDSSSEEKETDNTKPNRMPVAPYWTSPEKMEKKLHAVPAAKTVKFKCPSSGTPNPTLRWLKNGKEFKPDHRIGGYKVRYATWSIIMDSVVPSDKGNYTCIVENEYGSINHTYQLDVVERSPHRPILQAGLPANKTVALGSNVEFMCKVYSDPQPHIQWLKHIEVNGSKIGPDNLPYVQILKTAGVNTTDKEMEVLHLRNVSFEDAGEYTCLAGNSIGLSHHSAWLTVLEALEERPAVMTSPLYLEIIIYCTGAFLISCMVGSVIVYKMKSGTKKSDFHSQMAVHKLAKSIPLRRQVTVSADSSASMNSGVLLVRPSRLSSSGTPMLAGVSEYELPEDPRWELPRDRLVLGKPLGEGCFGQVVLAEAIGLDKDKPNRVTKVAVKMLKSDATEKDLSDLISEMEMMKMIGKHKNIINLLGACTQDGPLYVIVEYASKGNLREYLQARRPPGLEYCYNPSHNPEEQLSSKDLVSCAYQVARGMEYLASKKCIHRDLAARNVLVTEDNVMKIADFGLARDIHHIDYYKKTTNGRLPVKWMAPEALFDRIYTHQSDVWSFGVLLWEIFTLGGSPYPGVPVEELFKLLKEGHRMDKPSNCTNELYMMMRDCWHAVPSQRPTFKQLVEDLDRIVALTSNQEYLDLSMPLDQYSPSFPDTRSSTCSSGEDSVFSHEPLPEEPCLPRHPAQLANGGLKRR
Assay: phosphorylation enrichment, bacterial display (enrichment ratio); higher = better substrate or ligand; peptides without Tyr show the background
readout: phosphorylation enrichment
Respond with the number and no other words.

q: Any idea what phosphorylation enrichment was measured for NKEPRYQEDPP [TJP2_Y479] ?
a: 0.625

q: Any idea what phosphorylation enrichment was measured for GADDSYFTVRS [ZAP70_Y492_A495V_YF] ?
a: 3.54

q: Any idea what phosphorylation enrichment was measured for TTKAKYKTPIY [PLD2_Y573_T577I] ?
a: 0.46

q: Any idea what phosphorylation enrichment was measured for NTGDYYDLYGG [PTPN11_Y63] ?
a: 14.7

q: Any idea what phosphorylation enrichment was measured for CSSPTYRDCLQ [LARGE2_Y682_R677C] ?
a: 0.49

q: Any idea what phosphorylation enrichment was measured for RAYSWYQHQRA [NDST1_Y714] ?
a: 0.472

q: Any idea what phosphorylation enrichment was measured for PMQLPHDSTWE [PDGFRB_Y589_Y589H] ?
a: 0.66

* * *

Give SH2 binding enrichment for every item shown.
Target: SHP2-C SH2
Assay: SH2 binding enrichment of the phosphorylated peptide, bacterial display (enrichment ratio); higher = better substrate or ligand; peptides without Tyr show the background
Respond with the number and no other words.

q: Any idea what SH2 binding enrichment was measured for MPQNEYIELHC [NSA2_Y6_R11C] ?
a: 0.782

q: Any idea what SH2 binding enrichment was measured for QTPVLYAMLDH [MPZ_Y220] ?
a: 2.71

q: Any idea what SH2 binding enrichment was measured for ADARMYGDLPW [PLP1_Y207_V209D] ?
a: 1.09

q: Any idea what SH2 binding enrichment was measured for MSDVPYVMNRG [ACAT1_Y161_N158D] ?
a: 0.617

q: Any idea what SH2 binding enrichment was measured for LDLPGYCLLRE [CCDC116_Y291_P293L] ?
a: 0.674

q: Any idea what SH2 binding enrichment was measured for RFLERYIYNPE [HLA-DPB1_Y57_R61P] ?
a: 1.28

q: Any idea what SH2 binding enrichment was measured for KPEKTYGLRKE [CEP43_Y267] ?
a: 0.999

q: Any idea what SH2 binding enrichment was measured for CTTIHYNYMYN [TP53_Y234_C238Y] ?
a: 0.887

q: Any idea what SH2 binding enrichment was measured for RRMLQYLTVND [PPFIBP2_Y663] ?
a: 0.976

q: Any idea what SH2 binding enrichment was measured for EIIPFYGMSTF [FNDC3B_Y175_YF] ?
a: 0.575

q: Any idea what SH2 binding enrichment was measured for NFDLDYDSVQP [MYC_Y16_YF] ?
a: 0.898

q: Any idea what SH2 binding enrichment was measured for QGIYGYHHYMQ [UFSP2_Y287] ?
a: 1.67

q: Any idea what SH2 binding enrichment was measured for KFLVGYEMLAQ [GALT_Y339_M336L] ?
a: 1.06

q: Any idea what SH2 binding enrichment was measured for VNTTLYEKFTF [TEK_Y1108_YF] ?
a: 0.927

* * *

Give phosphorylation enrichment for every item shown.
Test system: Fer (mouse)
Assay: phosphorylation enrichment, bacterial display (enrichment ratio); higher = better substrate or ligand; peptides without Tyr show the background

q: Any idea what phosphorylation enrichment was measured for HFVDEYDLTIE [KRAS_Y32_P34L] ?
a: 0.841

q: Any idea what phosphorylation enrichment was measured for LGGSPYPGVPV [FGFR1_Y701] ?
a: 0.413

q: Any idea what phosphorylation enrichment was measured for ADAGMYGVLPW [PLP1_Y207_R205G] ?
a: 2.39

q: Any idea what phosphorylation enrichment was measured for DLGIQYKVLKP [CTNNA1_Y177_A179V] ?
a: 0.417

q: Any idea what phosphorylation enrichment was measured for YEREQYADRAR [RBM4_Y355] ?
a: 0.441

q: Any idea what phosphorylation enrichment was measured for NFHRGYHLQVL [CD200R1L_Y138] ?
a: 0.478

q: Any idea what phosphorylation enrichment was measured for STASGYSDVTD [DTX2_Y425] ?
a: 0.398

* * *

Give SH2 binding enrichment for every item shown.
Biological target: SHP2-C SH2;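 also: peptide library displayed on the E. coli surface as eCPX fusions, selected cells deep-sequenced, score is each peptide's frequency after selection divided by its frequency in the input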
Assay: SH2 binding enrichment of the phosphorylated peptide, bacterial display (enrichment ratio); higher = better substrate or ligand; peptides without Tyr show the background

q: Any idea what SH2 binding enrichment was measured for GEKKAYVRLAP [RPL23A_Y137] ?
a: 0.851

q: Any idea what SH2 binding enrichment was measured for GKSDPYHATSG [GJA1_Y247] ?
a: 0.588

q: Any idea what SH2 binding enrichment was measured for REDIFYTSKLW [AKR1C2_Y81] ?
a: 0.838

q: Any idea what SH2 binding enrichment was measured for EMTAEYACTRK [ACAD9_Y325] ?
a: 1.03

q: Any idea what SH2 binding enrichment was measured for LSGVIYVILGK [PMP22_Y153_R157G] ?
a: 0.801

q: Any idea what SH2 binding enrichment was measured for THEVRYVSAGQ [SLCO4A1_Y77] ?
a: 0.927

q: Any idea what SH2 binding enrichment was measured for LLLLFCVVRYC [MPZ_Y177_Y177C] ?
a: 1.58

q: Any idea what SH2 binding enrichment was measured for YVGGFYGGCNE [CTSC_Y352] ?
a: 0.651

q: Any idea what SH2 binding enrichment was measured for SADIAYNYRHG [PAH_Y166_F161S] ?
a: 0.699

q: Any idea what SH2 binding enrichment was measured for LIYTNYEVGKD [GSTP1_Y112_A114V] ?
a: 1.09

q: Any idea what SH2 binding enrichment was measured for SSREEYFIGGG [GYPC_Y126_K124E] ?
a: 0.895

q: Any idea what SH2 binding enrichment was measured for TVDASYFGGRG [ANTXR2_Y380_YF] ?
a: 0.513

q: Any idea what SH2 binding enrichment was measured for EERNPYYSSAR [MCCC2_Y520_G517R] ?
a: 0.875

q: Any idea what SH2 binding enrichment was measured for PFIDSYEKDVA [PGM1_Y521_L516P_YF] ?
a: 0.612

* * *

System: c-Src
Assay: phosphorylation enrichment, bacterial display (enrichment ratio); higher = better substrate or ligand; peptides without Tyr show the background
Tag: 1.0 if measured phosphorylation enrichment is not below 0.5, 0.0 if it is.

q: In plain terms: is recorded phosphorylation enrichment at least 0.5 for MRALIYNSSTA [PLEKHA7_Y243] ?
a: 1.0

q: In plain terms: is recorded phosphorylation enrichment at least 0.5 for ISKKHYAGLLF [POLD1_Y809_R808H] ?
a: 0.0

q: In plain terms: is recorded phosphorylation enrichment at least 0.5 for GMSQAYSSSQR [DES_Y5] ?
a: 0.0

q: In plain terms: is recorded phosphorylation enrichment at least 0.5 for LSQAKYQIRYR [CRLF1_Y272_F268S] ?
a: 0.0

q: In plain terms: is recorded phosphorylation enrichment at least 0.5 for WVYNHYRCIIW [BRCA2_Y2624_W2626C] ?
a: 0.0

q: In plain terms: is recorded phosphorylation enrichment at least 0.5 for KPNMNYDKLSW [FLI1_Y332_R337W] ?
a: 0.0

q: In plain terms: is recorded phosphorylation enrichment at least 0.5 for GPQGVYSNKLV [PTPN14_Y506] ?
a: 1.0

q: In plain terms: is recorded phosphorylation enrichment at least 0.5 for QWRTKYEMDAI [MYH7_Y1375_T1377M] ?
a: 0.0

q: In plain terms: is recorded phosphorylation enrichment at least 0.5 for DASENYFVMDS [TMEM240_Y77_T80M] ?
a: 1.0

q: In plain terms: is recorded phosphorylation enrichment at least 0.5 for GAMGHYVLAER [HFE_Y342] ?
a: 0.0

q: In plain terms: is recorded phosphorylation enrichment at least 0.5 for GEVKAYGAGLL [TH_Y419] ?
a: 0.0

q: In plain terms: is recorded phosphorylation enrichment at least 0.5 for MSRYIYSTDYY [NTRK1_Y676_D674Y] ?
a: 1.0

q: In plain terms: is recorded phosphorylation enrichment at least 0.5 for NAPNSYGRRPI [CDKN2A_Y44] ?
a: 1.0

* * *

Test system: AncSZ
Test: phosphorylation enrichment, bacterial display (enrichment ratio); higher = better substrate or ligand; peptides without Tyr show the background
Give phosphorylation enrichment for every item shown.
Respond with the number and no other words.

q: Any idea what phosphorylation enrichment was measured for ADFFDYGRGLS [KHDRBS3_Y304_H306R_YF] ?
a: 0.808

q: Any idea what phosphorylation enrichment was measured for ICRWVYPLTPE [EIF2B5_Y319_R315C] ?
a: 1.29

q: Any idea what phosphorylation enrichment was measured for GDFSRYDEGSG [RECQL5_Y484] ?
a: 0.889

q: Any idea what phosphorylation enrichment was measured for PAIYTYDEYKK [COL8A2_Y648_T645I] ?
a: 1.93

q: Any idea what phosphorylation enrichment was measured for LRFEVYGGENE [STOX1_Y610_YF] ?
a: 1.15

q: Any idea what phosphorylation enrichment was measured for YAFQLYDLDPD [CHP2_Y123_R127P] ?
a: 1.66

q: Any idea what phosphorylation enrichment was measured for THEVRYVSAGQ [SLCO4A1_Y77] ?
a: 0.733

Data provenance: the supplement of paper PMC10065799
